Molecular target: CDK2/Cyclin E1 (Homo sapiens)
Assay: CDK2/Cyclin E1 TR-FRET biochemical assay, 0.060 mM ATP
Settings: 0.15 μM Rb (Ser780)-biotin substrate, 120 min reaction, Table 1
Description: Compounds disclosed herein were tested for inhibition of CDK2/Cyclin E1 or CDK1/Cyclin B1 kinase in an assay based on the time-resolved fluorescence-resonance energy transfer (TR-FRET) methodology. […] Plates were incubated at room temperature for 60 minutes, and the TR-FRET signals (ex337 nm, em665 nm/620 nm) were recorded on a PHERAstar FSX plate reader (BMG Labtech). […]
pIC50: −log10 of the molar value.
Outcome: Met for pIC50 of at least 7; Not met for anything lower.

Query: Entry Cc1n[nH]c(C)c1O[C@@H]1CC[C@H](c2cc(Nc3ccc4c(c3F)CNS4(=O)=O)n[nH]2)C1 (relative stereo) [Example 75] : is its pIC50 no less than 7?
Reply: Met

Query: Entry CC(C)(C)c1ncccc1O[C@@H]1CC[C@H](c2cc(Nc3ccc4c(c3F)CNS4(=O)=O)n[nH]2)C1 (relative stereo) [Example 45] : is its pIC50 no less than 7?
Reply: Not met

Query: Entry Cc1ccncc1O[C@@H]1CC[C@H](c2cc(Nc3ccc4c(c3F)CNS4(=O)=O)n[nH]2)C1 (relative stereo) [Example 42] : is its pIC50 no less than 7?
Reply: Not met

Query: Entry C=C(C)c1ccncc1O[C@@H]1CC[C@H](c2cc(Nc3ccc4c(c3F)CNS4(=O)=O)n[nH]2)C1 (relative stereo) [Example 43] : is its pIC50 no less than 7?
Reply: Met

Query: Entry O=S1(=O)NCc2c1ccc(Nc1cc([C@H]3CC[C@@H](Oc4ccon4)C3)[nH]n1)c2F (relative stereo) [Example 48] : is its pIC50 no less than 7?
Reply: Met

Query: Entry CCc1cnc(C2CCC(c3cc(Nc4ccc5c(c4F)CS(=O)(=O)N5)n[nH]3)C2)o1 (stereo not drawn) [Example 144] : is its pIC50 no less than 7?
Reply: Met

Query: Entry CC(C)(C)c1cnc(C2CCC(c3cc(Nc4ccc5c(c4F)CNS5(=O)=O)n[nH]3)C2)o1 (single isomer, unassigned) [Example 91a] : is its pIC50 no less than 7?
Reply: Met

Query: Entry CC(C)N1CCN([C@H]2CC[C@@H](c3cc(Nc4ccc5c(c4F)CNS5(=O)=O)n[nH]3)C2)C1=O (relative stereo) [Example 81] : is its pIC50 no less than 7?
Reply: Not met

Query: Entry CC1(C)CN([C@H]2CC[C@@H](c3cc(Nc4ccc5c(c4F)CNS5(=O)=O)n[nH]3)C2)C(=O)N1 (relative stereo) [Example 85] : is its pIC50 no less than 7?
Reply: Met

Query: Entry O=S1(=O)NCc2c1ccc(Nc1cc([C@H]3CC[C@@H](Oc4n[nH]c5ccccc45)C3)[nH]n1)c2F (relative stereo) [Example 67] : is its pIC50 no less than 7?
Reply: Met

Query: Entry O=S1(=O)NCc2c1ccc(Nc1cc([C@H]3CC[C@@H](Oc4cccnn4)C3)[nH]n1)c2F (relative stereo) [Example 22] : is its pIC50 no less than 7?
Reply: Met

Query: Entry CC(C)(C)c1n[nH]cc1OC1CCC(c2cc(Nc3ccc4c(c3F)CNS4(=O)=O)n[nH]2)C1 (single isomer, unassigned) [Example 74b] : is its pIC50 no less than 7?
Reply: Met

Query: Entry O=S1(=O)NCc2c1ccc(Nc1cc([C@H]3CC[C@@H](Oc4cccnc4)C3)[nH]n1)c2F (relative stereo) [Example 39] : is its pIC50 no less than 7?
Reply: Met

Query: Entry Cc1ncccc1O[C@@H]1CC[C@H](c2cc(Nc3ccc4c(c3F)CNS4(=O)=O)n[nH]2)C1 (relative stereo) [Example 40] : is its pIC50 no less than 7?
Reply: Met

Query: Entry O=S1(=O)NCc2c1ccc(Nc1cc([C@H]3CC[C@@H](Oc4cc(C(F)(F)F)n[nH]4)C3)[nH]n1)c2F (relative stereo) [Example 69] : is its pIC50 no less than 7?
Reply: Not met
